# Experimental target: PI3K delta (Homo sapiens)
# Construct: for the full-length p110-d subunit are generated and fused by overlapping PCR; p85(iSH2) fusion partner (see partner chain) (N); His tag (C); Tn5 (Trichoplusia ni) or TiniPro insect cells
# Assay details: PI3K delta kinase assay (Kinase-Glo luminescence)
Consider the following compounds; for each one, report its pIC50.
Give bare numbers, as −log10 of the molar value.

CCOCc1cc(-c2ccc3ncc4c(c3c2)n(-c2c(C)nn(C)c2C)c(=O)n4C)cnc1N :: 7.48

Give pIC50 for each of the items listed below.
1. Cc1cncc(-c2ccc3ncc4c(c3c2)n(-c2cn(C)nc2C)c(=O)n4C)c1
2. CNc1cc(-c2ccc3ncc4c(c3c2)n(-c2cn(C)nc2C)c(=O)n4C)cnc1COC

1. 7.39
2. 7.60

----------
# Experimental target: PI3K beta (Homo sapiens, UniProt P42338)
# Construct: for the full-length p110-b subunit are generated and fused by overlapping PCR; p85(iSH2) fusion partner (see partner chain) (N); His tag (C); Tn5 (Trichoplusia ni) or TiniPro insect cells
# Sequence (P42338 with tags, fused parts or gaps limits assumed): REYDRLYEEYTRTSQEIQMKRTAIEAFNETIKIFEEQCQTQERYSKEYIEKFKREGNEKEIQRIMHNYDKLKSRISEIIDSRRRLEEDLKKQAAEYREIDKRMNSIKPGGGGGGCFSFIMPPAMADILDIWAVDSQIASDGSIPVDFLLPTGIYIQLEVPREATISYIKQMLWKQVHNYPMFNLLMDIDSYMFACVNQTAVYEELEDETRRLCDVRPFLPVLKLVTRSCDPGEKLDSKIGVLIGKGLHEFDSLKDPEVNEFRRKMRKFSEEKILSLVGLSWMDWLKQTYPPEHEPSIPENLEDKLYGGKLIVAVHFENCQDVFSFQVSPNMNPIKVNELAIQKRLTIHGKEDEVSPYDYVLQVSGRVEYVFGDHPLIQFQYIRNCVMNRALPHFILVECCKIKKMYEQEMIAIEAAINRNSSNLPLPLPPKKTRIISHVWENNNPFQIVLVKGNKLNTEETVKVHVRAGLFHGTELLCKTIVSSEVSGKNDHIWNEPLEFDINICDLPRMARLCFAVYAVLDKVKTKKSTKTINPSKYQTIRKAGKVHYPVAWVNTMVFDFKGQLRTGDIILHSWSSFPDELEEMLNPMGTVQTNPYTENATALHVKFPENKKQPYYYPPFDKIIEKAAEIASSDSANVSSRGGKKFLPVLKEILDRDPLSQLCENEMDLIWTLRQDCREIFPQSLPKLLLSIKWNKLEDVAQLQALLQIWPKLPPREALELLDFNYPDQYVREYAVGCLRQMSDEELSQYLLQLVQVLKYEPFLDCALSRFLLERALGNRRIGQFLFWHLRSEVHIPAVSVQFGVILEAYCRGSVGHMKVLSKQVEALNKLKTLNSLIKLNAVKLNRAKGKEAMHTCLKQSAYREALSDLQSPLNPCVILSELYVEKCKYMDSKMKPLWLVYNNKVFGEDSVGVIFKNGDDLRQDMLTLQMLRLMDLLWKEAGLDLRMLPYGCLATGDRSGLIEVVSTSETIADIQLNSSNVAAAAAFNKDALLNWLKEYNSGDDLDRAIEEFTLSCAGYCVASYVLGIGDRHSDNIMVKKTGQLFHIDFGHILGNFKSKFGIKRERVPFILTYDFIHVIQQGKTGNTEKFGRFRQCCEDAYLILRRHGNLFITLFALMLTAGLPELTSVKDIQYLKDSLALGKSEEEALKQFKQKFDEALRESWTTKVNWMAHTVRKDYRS
# Assay details: PI3K beta kinase assay (Kinase-Glo luminescence)
Property label: pIC50
Numbers only, as −log10 of the molar value.

Consider the worked cases shown below.
CCNc1cc(-c2ccc3ncc4c(c3c2)n(-c2cn(CC)nc2C)c(=O)n4C)cnc1COC [Example 157] :: 7.55
CCOc1cc(-c2ccc3ncc4c(c3c2)n(-c2cn(C)nc2C)c(=O)n4C)cnc1COC [Example 197.1] :: 6.33
Cc1nn(C)cc1-n1c(=O)n(C)c2cnc3ccc(-c4cncc(N(C)C(C)C)c4)cc3c21 [Example 173] :: 6.83
CCNc1cc(-c2ccc3ncc4c(c3c2)n(-c2cn(CC)nc2C)c(=O)n4C)cnc1C [Example 87.3] :: 7.92
Cc1nn(C)cc1-n1c(=O)n(C)c2cnc3ccc(-c4ccc(C(N)=O)cc4)cc3c21 [Example 41] :: 6.95

Give pIC50 for each of the items listed below.
1. CCOc1ccc(-c2ccc3ncc4c(c3c2)n(-c2cn(CCO)nc2C)c(=O)n4C)cn1 [Example 103.2]
2. CNc1ncc(-c2ccc3ncc4c(c3c2)n(-c2c(C)nn(C)c2C)c(=O)n4C)cc1F [Example 141.1]
3. Cc1nn(C)cc1-n1c(=O)n(C)c2cnc3ccc(-c4cncc(C5(O)CCCC5)c4)cc3c21 [Example 218]

6.48
6.33
7.72

----------
# Experimental target: PI3K beta (Homo sapiens, UniProt P42338)
# Construct: for the full-length p110-b subunit are generated and fused by overlapping PCR; p85(iSH2) fusion partner (see partner chain) (N); His tag (C); Tn5 (Trichoplusia ni) or TiniPro insect cells
# Assay details: PI3K beta kinase assay (Kinase-Glo luminescence)
# Description: In a more preferred assay, the kinase reaction is performed in a final volume of 10 μL per well of a low volume non binding CORNING, 384 well black plate (Cat. No. #3676). The final concentrations of ATP and phosphatidyl inositol (PI) in the assay are 1 μM and 10 μg/mL respectively. […] IC50 is determined by a four parameter curve fitting routine that comes along with “excel fit”. […] Alternatively, IC50 values are calculated using idbsXLfit model 204, which is a 4 parameter logistic model.
Consider the following compounds; for each one, report its IC50.
Numbers only, in µM.

Consider the worked cases shown below.
COc1ncc(-c2ccc3ncc4c(c3c2)n(-c2cn(C)nc2Cl)c(=O)n4C)cc1N :: 0.023
COCc1cc(-c2ccc3ncc4c(c3c2)n(-c2cn(C)nc2C)c(=O)n4C)cnc1OC :: 0.013
CNC(=O)c1cc(-c2ccc3ncc4c(c3c2)n(-c2cn(C)nc2C)c(=O)n4C)cnc1N :: 0.062
CCOc1cncc(-c2ccc3ncc4c(c3c2)n(-c2c(C)cnn2C)c(=O)n4C)c1 :: 0.193
COc1ncc(-c2ccc3ncc4c(c3c2)n(-c2cn(C)nc2Cl)c(=O)n4C)cc1CO :: 0.013
CCOc1cncc(-c2ccc3ncc4c(c3c2)n(-c2cn(C)nc2C)c(=O)n4C)c1 :: 0.006
Cc1nn(C)cc1-n1c(=O)n(C)c2cnc3ccc(-c4cncc(OC(CF)CF)c4)cc3c21 :: 0.011

Note: attention shifts to another entry.
Report value: IC50, system: PI3K beta (Homo sapiens, UniProt P42338), compound: `Cc1nn(CCO)cc1-n1c(=O)n(C)c2cnc3ccc(-c4cncc(N5CCOCC5)c4)cc3c21`
0.559

----------
# Experimental target: PI3K delta (Homo sapiens, UniProt O00329)
# Construct: for the full-length p110-d subunit are generated and fused by overlapping PCR; p85(iSH2) fusion partner (see partner chain) (N); His tag (C); Tn5 (Trichoplusia ni) or TiniPro insect cells
# Sequence (O00329 with tags, fused parts or gaps limits assumed): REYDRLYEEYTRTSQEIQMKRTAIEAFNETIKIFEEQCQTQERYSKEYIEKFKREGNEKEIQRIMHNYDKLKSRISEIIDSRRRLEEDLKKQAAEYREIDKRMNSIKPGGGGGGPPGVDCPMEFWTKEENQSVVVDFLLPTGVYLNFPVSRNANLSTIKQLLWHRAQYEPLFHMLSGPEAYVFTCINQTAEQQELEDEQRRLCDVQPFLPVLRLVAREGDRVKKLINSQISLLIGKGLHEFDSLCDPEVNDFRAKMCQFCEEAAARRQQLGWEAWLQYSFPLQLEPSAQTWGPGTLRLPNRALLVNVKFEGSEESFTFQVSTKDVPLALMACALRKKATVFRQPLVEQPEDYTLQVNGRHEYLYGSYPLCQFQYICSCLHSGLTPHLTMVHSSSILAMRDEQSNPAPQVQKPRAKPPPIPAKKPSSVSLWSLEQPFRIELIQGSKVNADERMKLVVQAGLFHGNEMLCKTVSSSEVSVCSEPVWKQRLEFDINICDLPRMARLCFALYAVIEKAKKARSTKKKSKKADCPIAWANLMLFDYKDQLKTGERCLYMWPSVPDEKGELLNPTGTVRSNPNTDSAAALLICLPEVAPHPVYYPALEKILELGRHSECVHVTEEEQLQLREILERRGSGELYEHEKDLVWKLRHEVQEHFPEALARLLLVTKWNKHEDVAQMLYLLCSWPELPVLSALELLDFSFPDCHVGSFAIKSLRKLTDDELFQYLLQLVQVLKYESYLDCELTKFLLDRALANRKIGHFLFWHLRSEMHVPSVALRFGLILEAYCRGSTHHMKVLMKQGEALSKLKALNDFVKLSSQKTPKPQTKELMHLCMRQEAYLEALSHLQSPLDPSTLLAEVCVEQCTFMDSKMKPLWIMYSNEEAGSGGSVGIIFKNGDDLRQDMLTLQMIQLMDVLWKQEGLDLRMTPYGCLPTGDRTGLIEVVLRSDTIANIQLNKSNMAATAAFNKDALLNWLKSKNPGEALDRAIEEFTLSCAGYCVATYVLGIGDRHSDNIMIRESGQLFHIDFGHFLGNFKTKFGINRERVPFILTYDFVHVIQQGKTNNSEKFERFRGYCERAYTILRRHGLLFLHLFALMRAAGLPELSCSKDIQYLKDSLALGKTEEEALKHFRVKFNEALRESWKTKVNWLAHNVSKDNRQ
# Assay details: PI3K delta kinase assay (Kinase-Glo luminescence)
Property label: IC50 (nM)
Give bare numbers, in nM.

Cc1nn(C)cc1-n1c(=O)n(C)c2cnc3ccc(-c4cc(O)cc(C(F)(F)F)c4)cc3c21 :: 7
CCNc1ncc(-c2ccc3ncc4c(c3c2)n(-c2cn(C)nc2C)c(=O)n4C)cc1Cl :: 8
CCNc1cc(-c2ccc3ncc4c(c3c2)n(-c2cn(CC)nc2C)c(=O)n4C)cnc1COC :: 9
Cc1nn(C)cc1-n1c(=O)n(C)c2cnc3ccc(-c4cnc5c(c4)OCCN5C)cc3c21 :: 9

Give IC50 for each of the items listed below.
1. COc1ccc(-c2ccc3ncc4c(c3c2)n(-c2cn(C(C)C)nc2C)c(=O)n4C)cc1OC
2. Cc1ncc(-c2ccc3ncc4c(c3c2)n(-c2cn(C)nc2C)c(=O)n4C)cc1N
3. CCn1cc(-n2c(=O)n(C)c3cnc4ccc(-c5cnc(NC)nc5OC)cc4c32)c(C)n1
4. Cc1nn(C)cc1-n1c(=O)n(C)c2cnc3ccc(-c4cnc(F)c(N)c4)cc3c21
5. COc1ncc(-c2ccc3ncc4c(c3c2)n(-c2cn(C)nc2Cl)c(=O)n4C)cc1CO
6. CN(C)c1ncc(-c2ccc3ncc4c(c3c2)n(-c2cn(C)nc2Cl)c(=O)n4C)cn1

7
8
7
8
10
7

----------
Consider the following compounds; for each one, report its pIC50.
# Experimental target: PI3K beta (Homo sapiens)
# Construct: for the full-length p110-b subunit are generated and fused by overlapping PCR; p85(iSH2) fusion partner (see partner chain) (N); His tag (C); Tn5 (Trichoplusia ni) or TiniPro insect cells
# Assay details: PI3K beta kinase assay (Kinase-Glo luminescence)
One number for each entry, as −log10 of the molar value.

CCc1ncc(-c2ccc3ncc4c(c3c2)n(-c2cn(C)nc2C)c(=O)n4C)cc1NC(C)C :: 7.70

Give pIC50 for each of the items listed below.
1. CNc1ccc(-c2ccc3ncc4c(c3c2)n(-c2cn(C)nc2Cl)c(=O)n4C)cn1
2. CCn1cc(-n2c(=O)n(C)c3cnc4ccc(-c5ccc(CO)nc5)cc4c32)c(C)n1
3. COCCNC(=O)c1cc(-c2ccc3ncc4c(c3c2)n(-c2cn(C)nc2C)c(=O)n4C)cnc1N
4. Cc1nn(C)cc1-n1c(=S)n(C)c2cnc3ccc(-c4cccnc4)cc3c21
5. CCOc1ccc(-c2ccc3ncc4c(c3c2)n(-c2c(C)nn(C)c2C)c(=O)n4C)cc1OCC
6. CCOc1cc(-c2ccc3ncc4c(c3c2)n(-c2cn(C)nc2C)c(=O)n4C)ccc1OC
7. CCNc1cc(-c2ccc3ncc4c(c3c2)n(-c2cn(C)nc2C)c(=O)n4C)cnc1COC

7.39
6.64
7.15
7.46
6.76
7.51
7.54

Give pIC50 for each of the items listed below.
1. Cc1nn(C)cc1-n1c(=O)n(C)c2cnc3ccc(-c4cncnc4)cc3c21
2. CCOCc1cc(-c2ccc3ncc4c(c3c2)n(-c2cn(C)nc2Cl)c(=O)n4C)cnc1N

6.29
8.00

----------
Consider the following molecules; for each one, report its IC50.
# Experimental target: mTOR (Homo sapiens, UniProt P42345)
# Sequence (P42345 1360-2549 limits assumed): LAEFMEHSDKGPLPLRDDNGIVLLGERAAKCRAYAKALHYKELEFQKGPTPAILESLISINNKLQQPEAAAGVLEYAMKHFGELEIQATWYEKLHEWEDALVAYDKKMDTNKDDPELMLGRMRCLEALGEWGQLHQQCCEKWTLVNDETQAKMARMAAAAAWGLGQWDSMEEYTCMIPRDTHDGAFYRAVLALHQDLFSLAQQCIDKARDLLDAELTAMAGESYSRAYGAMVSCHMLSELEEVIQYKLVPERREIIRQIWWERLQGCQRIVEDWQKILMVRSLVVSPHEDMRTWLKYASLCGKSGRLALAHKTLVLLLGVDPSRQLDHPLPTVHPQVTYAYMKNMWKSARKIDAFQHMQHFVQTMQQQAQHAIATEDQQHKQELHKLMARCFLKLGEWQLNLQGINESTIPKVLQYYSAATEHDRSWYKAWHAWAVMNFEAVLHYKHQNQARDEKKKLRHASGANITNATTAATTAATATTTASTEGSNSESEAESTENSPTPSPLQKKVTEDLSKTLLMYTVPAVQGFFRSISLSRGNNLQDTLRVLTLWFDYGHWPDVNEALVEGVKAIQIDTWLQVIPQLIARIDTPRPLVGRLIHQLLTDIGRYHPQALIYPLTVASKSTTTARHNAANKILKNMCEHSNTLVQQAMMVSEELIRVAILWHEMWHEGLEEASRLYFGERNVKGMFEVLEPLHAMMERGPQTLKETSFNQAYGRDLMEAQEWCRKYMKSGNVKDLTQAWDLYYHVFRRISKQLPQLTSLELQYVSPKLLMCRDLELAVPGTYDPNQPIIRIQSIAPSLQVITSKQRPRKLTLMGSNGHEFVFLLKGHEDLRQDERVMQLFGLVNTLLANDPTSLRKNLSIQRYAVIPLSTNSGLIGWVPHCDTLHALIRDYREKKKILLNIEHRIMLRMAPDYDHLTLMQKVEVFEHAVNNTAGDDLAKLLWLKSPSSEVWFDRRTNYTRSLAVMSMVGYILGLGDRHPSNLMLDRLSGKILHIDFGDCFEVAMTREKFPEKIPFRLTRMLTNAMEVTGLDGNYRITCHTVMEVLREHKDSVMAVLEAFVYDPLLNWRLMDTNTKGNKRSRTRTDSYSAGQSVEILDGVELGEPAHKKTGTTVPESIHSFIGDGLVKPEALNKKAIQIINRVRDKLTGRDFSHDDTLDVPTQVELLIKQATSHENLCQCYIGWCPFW
Give bare numbers, in nM.

Consider the worked cases shown below.
CNc1ncc(-c2ccc3ncc4c(c3c2)n(-c2cn(C)nc2Cl)c(=O)n4C)cc1COC [Example 248.4] :: 6
Cc1nn(C)cc1-n1c(=O)n(C)c2cnc3ccc(-c4cncc(OC5CCC5)c4)cc3c21 [Example 60.1] :: 5
CCOCc1cc(-c2ccc3ncc4c(c3c2)n(-c2cn(C)nc2C)c(=O)n4C)cnc1N [Example 166.1] :: 33
COc1cc(-c2ccc3ncc4c(c3c2)n(-c2c(C)nn(C)c2C)c(=O)n4C)ccc1O [Example 31] :: 177
CNc1ncc(-c2ccc3ncc4c(c3c2)n(-c2cn(C)nc2C)c(=O)n4C)cc1C(F)(F)F [Example 144.3] :: 3
COc1ncc(-c2ccc3ncc4c(c3c2)n(-c2cn(C)nc2C)c(=O)n4C)cc1NC(C)=O [Example 64] :: 30

Query IC50 for CCn1c(=O)n(C)c2ncc(-c3ccc4ncc5c(c4c3)n(-c3cn(C)nc3C)c(=O)n5C)cc21 [Example 68]
462
